This listing pairs compounds with measured normalized growth.
protocolDetails: chemical genetic growth profiling, strain panel (AID 1159580);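 further: tested at 20 µM; growth read once vehicle control cultures reached saturation at 30 °C; 1 = growth at the plate median or of vehicle wells; lower values mean less growth of the strain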
appliedConditions: S. cerevisiae deletion strains, growth OD, locus YML124C, strain tub3, active compounds read low
About 2,000 (36%) of roughly 5,500 compounds were called active. Roughly 18% stayed inconclusive and do not appear here. The list shows a part of the results.
parameter: normalized growth

>>> numericresult("O=C(O)CCC(=O)C(=O)O")
1.02
>>> numericresult("COC(=O)[C@]1(C)CC[C@]2(C)CC[C@]3(C)C4=CCc5c(cc(O)c(O)c5C)[C@]4(C)CC[C@@]3(C)C2C1 (stereo partly drawn)")
0.98
>>> numericresult("O=C(O)c1ccccc1Nc1cccc(C(F)(F)F)c1")
0.97
>>> numericresult("CCN(CC)CCNC(=O)c1cc(S(C)(=O)=O)ccc1OC")
1.01
>>> numericresult("Oc1ccc(Cl)c2cccnc12")
0.0612
>>> numericresult("CCCCC1(COC(=O)CCC(=O)O)C(=O)N(c2ccccc2)N(c2ccccc2)C1=O")
1.01
>>> numericresult("CCC(Cc1c(I)cc(I)c(N)c1I)C(=O)O (stereo not drawn)")
0.992
>>> numericresult("Nc1nc2c(ncn2C2C[C@H](O)[C@@H](CO)O2)c(=O)[nH]1 (stereo partly drawn)")
0.554
>>> numericresult("COc1cc2c(c(OC)c1OC)-c1ccc(OC)c(=O)cc1[C@@H](NC(C)=O)CC2")
1.03
>>> numericresult("Nc1ncnc2c1ncn2C1O[C@H](COP(=O)(O)O)[C@@H](O)[C@H]1O (stereo partly drawn)")
0.829
>>> numericresult("CCCc1occc(=O)c1/C=C/O")
0.954
>>> numericresult("C[C@H]1[C@H]2CCC3C4CC=C5C[C@@H](N(C)C)CC[C@]5(C)C4CC[C@@]32CN1C (stereo partly drawn)")
0.996
>>> numericresult("N[C@@H](Cc1ccc(O)c(O)c1)C(=O)O")
0.996
>>> numericresult("Cc1occc(=O)c1/C=C/O")
1.01
>>> numericresult("CC1(C)CC2C1(O)CCC1(C)C=CC(O)C21CO (stereo not drawn)")
0.988
>>> numericresult("NCCCC[C@H](N[C@@H](CCc1ccccc1)C(=O)O)C(=O)N1CCC[C@H]1C(=O)O")
0.995
>>> numericresult("CC1(C)C(C(Cl)Cl)C2(Cl)C(Cl)C(Cl)C1(Cl)C2(Cl)Cl (stereo not drawn)")
0.976
>>> numericresult("O=c1[nH]c(=O)n(C2C[C@@H](O)[C@@H](CO)O2)cc1F (stereo partly drawn)")
1.01
>>> numericresult("COc1cc2c(c(OC)c1OC)-c1ccc(O)c(=O)cc1[C@@H](NC(C)=O)CC2")
1
>>> numericresult("Cc1ccsc1/C=C/C1=NCCCN1C")
0.991
>>> numericresult("OC[C@@H]1CCCN2CCCC[C@H]12")
1
>>> numericresult("Nc1ncnc2c1ncn2C1C[C@H](O)[C@@H](CO)O1 (stereo partly drawn)")
0.99
>>> numericresult("CC1(C)C(O)CC(O)C2(C)C1CC(=O)C1(C)C2CCC2(C)C(C(=O)O)OC(=O)C3OC321 (stereo not drawn)")
1

Ref: PubChem BioAssay AID1159580
